# Test system: HL-60(TB) leukemia
# Procedure Text: NCI tumour cell line growth inhibition, 48 h
TGI by entry:
Record the value in µM, omitting the unit from your answer.

Query: Which TGI value belongs to Fc1cc2[nH]ncc2c2c3c(c(-c4cn[nH]c4C(F)(F)F)nc12)C1CCC3C1 (configuration not stated) ?
Result: 2.6

Query: What would you report for O=C1C(c2ccccc2)=[N+]([O-])c2ccccc21 ?
Result: 42.2

Query: Now the same for Cc1cc(C)c(S(=O)(=O)N(CCCN)OCCCON(CCCN)S(=O)(=O)c2c(C)cc(C)cc2C)c(C)c1
Result: 5.64

----------
# System: HOP-92 NSCLC
# Procedure Text: NCI tumour cell line growth inhibition, 48 h; in the data active = GI50 below about 0.43 µM; inactive = the rest
Would you mind answering with one of these outcomes? true (1) (active), false (0) (inactive)

{"columns": ["Structure Smiles String", "Assay System", "Class Name"],
 "data": [
  ["Cc1ccc(-c2csc(NC(=O)CN3CCN(c4cc5c(cc4F)c(=O)c(C(=O)O)cn5C4CC4)CC3)n2)cc1", "HOP-92 NSCLC", "false (0)"],
  ["CC[C@H](Nc1nc(C)nc(N)c1C#N)c1nc2cccc(NCc3ccc(C(=O)NO)cc3)c2c(=O)n1-c1ccccc1", "HOP-92 NSCLC", "false (0)"],
  ["COc1cc2c(=O)n(CCN)c3c4cc5c(cc4ccc3c2cc1OC)OCO5", "HOP-92 NSCLC", "false (0)"],
  ["N.N.N.N.O=C([O-])C(Cl)Cl.O=C([O-])C(Cl)Cl.[Co+3].[O-][Cl+3]([O-])([O-])[O-]", "HOP-92 NSCLC", "false (0)"]
]}

// switching to the query compound
Query: Entry CCOc1cc(/C=N\Nc2nnc(C)n2N)c(C)cc1N(CCCl)CCCl : call = ?
Result: true (1)

----------
# Tested on: SK-OV-3 ovarian
# Procedure Text: NCI tumour cell line growth inhibition, 48 h
Measured TGI values are reported for all entries that follow.

{"columns": ["Compound", "TGI"],
 "data": [
  ["C/C(Cl)=N\\OC(=O)Nc1ccc(C)cc1", "31.1 µM"],
  ["CC1=C(C(=O)Nc2cccc(Cl)c2)C(c2ccccc2F)C(C(=O)Nc2cccc(Cl)c2)=C(C)N1", "55.5 µM"],
  ["O=c1[nH]c2nc3ccccc3nc2[nH]c1=O", "> 100 µM"]
]}

Query: For the compound shown here, COc1ccc(-c2oc3c(OC)c(OC)c(OC)c(OC)c3c(=O)c2OC)cc1OC , give the reported TGI.
Result: > 100 µM

Query: Param item: O=C1C=CC=C/C1=C1\N=C(c2ccccc2OCC(=O)c2ccccc2)SS1
Result: > 100 µM

Query: Now the same for Nc1nc(Cl)cc(NCC2(O)CC2)n1
Result: > 100 µM

Query: // same read-out, input: CSC(SC)=C(C(=O)O)P(=O)(O)O
Result: > 100 µM

Query: Try Cc1cc(Cl)ccc1Nc1nc(C(F)(F)F)ccc1C(=O)N/N=C/c1ccc([N+](=O)[O-])cc1 next.
Result: 7.27 µM

Query: Item: CN(C)CCCNC(=O)c1cc(NC(=O)c2cc(NC(=O)CCCn3c4ccccc4c4ccccc43)cn2C)cn1C
Result: 30.8 µM

Query: Let us now turn to O=c1nc2c(c(-c3ccc(Br)cc3)[nH]1)COC/C2=C\c1ccc(Br)cc1
Result: > 50 µM

Query: Request: CNCCn1c(=O)c2cc(OC)c(OC)cc2c2ccc3cc4c(cc3c21)OCO4
Result: 1.32 µM

Query: Try the compound O=[N+]([O-])c1cnn(C2=CNc3ccccc3N=C2)c1
Result: > 100 µM

Query: Also CC(C)c1cccc(C(C)C)c1NC(=O)/C(CC(=O)CC(c1ccccc1)c1c(O)c2ccccc2oc1=O)=N/O (configuration not stated) ?
Result: > 100 µM

Query: Now this one: N#C/C(C(=O)Nc1ccc(Cl)cc1)=C(/N)N1CCCC1
Result: > 100 µM

Query: What about this compound? CCP(=O)(OC)C1=CCN(C(=O)OCC[Si](C)(C)C)CC1 (configuration not stated)
Result: > 100 µM

Query: Same thing, different compound: COc1ccc2cc(-c3c(-c4ccncc4)nc(-c4ccc(S(C)(=O)=O)cc4C)n3C)ccc2c1
Result: 16.7 µM

Query: Now give it for Cc1cc2c(cc1Cl)SC1=NN(C)C(N(C)C)N1S2(=O)=O (configuration not stated) too.
Result: > 100 µM

Query: Next entry: N#C/C(=C/n1c(=S)[nH]c2ccc([N+](=O)[O-])cc21)C(N)=O
Result: > 100 µM

Query: Try this compound next: C1=C2C3=[N+](CCCCC3)CC2Cc2ccsc21 (configuration not stated)
Result: > 100 µM

Query: Next up: CCOC(=O)/C=C1\CCCC12OCCO2
Result: > 100 µM

Query: And then COc1ccc(/C=C\c2cc(OC)c(O[Si](C)(C)C(C)(C)C)c(OC)c2)cc1 , what is it?
Result: > 100 µM

Query: Moving on to the next compound: Nc1ccccc1C#C/C=C\C#Cc1ccccc1
Result: 81.3 µM

The measurements presented in this section are drawn from PubChem BioAssay (NCI).
